Sequence of the target: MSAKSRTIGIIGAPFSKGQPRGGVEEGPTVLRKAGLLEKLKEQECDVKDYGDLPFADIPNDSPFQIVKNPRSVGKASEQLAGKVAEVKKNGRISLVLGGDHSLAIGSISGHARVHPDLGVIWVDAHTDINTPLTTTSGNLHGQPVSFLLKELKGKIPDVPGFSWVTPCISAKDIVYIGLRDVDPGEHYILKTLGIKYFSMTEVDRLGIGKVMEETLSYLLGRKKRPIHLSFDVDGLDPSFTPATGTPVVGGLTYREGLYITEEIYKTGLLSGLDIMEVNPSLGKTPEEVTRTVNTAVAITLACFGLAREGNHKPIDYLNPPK
This section presents compounds with their documented IC50 values.

[
  {
    "mol": "N[C@@]1(C(=O)O)C[C@@H](CNC2CCC2)C[C@@H]1CCCB(O)O",
    "quantity name": "IC50",
    "observed value": "26 to 100 nM"
  },
  {
    "mol": "N[C@@]1(C(=O)O)CNC[C@@H]1CCCB(O)O",
    "quantity name": "IC50",
    "observed value": "101 to 500 nM"
  },
  {
    "mol": "N[C@@]1(C(=O)O)CCC[C@@H]1CCCB(O)O",
    "quantity name": "IC50",
    "observed value": "101 to 500 nM"
  }
]

Here's the next entry for you.
In: Look at this compound and give its reported IC50. N[C@@]1(C(=O)O)C[C@@H](CNCc2ccccc2)C[C@@H]1CCCB(O)O
Out: 26 to 100 nM
